molecular target: carcinoembryonic antigen (CEA), human purified protein (Sigma) (Homo sapiens, UniProt P06731, biotin (biotinamidohexanoic acid N-hydroxysuccinimide ester) for selection and for the ELISA on streptavidin-coated plates; biotin-free for directly coated plates)
Sequence (P06731 35-685): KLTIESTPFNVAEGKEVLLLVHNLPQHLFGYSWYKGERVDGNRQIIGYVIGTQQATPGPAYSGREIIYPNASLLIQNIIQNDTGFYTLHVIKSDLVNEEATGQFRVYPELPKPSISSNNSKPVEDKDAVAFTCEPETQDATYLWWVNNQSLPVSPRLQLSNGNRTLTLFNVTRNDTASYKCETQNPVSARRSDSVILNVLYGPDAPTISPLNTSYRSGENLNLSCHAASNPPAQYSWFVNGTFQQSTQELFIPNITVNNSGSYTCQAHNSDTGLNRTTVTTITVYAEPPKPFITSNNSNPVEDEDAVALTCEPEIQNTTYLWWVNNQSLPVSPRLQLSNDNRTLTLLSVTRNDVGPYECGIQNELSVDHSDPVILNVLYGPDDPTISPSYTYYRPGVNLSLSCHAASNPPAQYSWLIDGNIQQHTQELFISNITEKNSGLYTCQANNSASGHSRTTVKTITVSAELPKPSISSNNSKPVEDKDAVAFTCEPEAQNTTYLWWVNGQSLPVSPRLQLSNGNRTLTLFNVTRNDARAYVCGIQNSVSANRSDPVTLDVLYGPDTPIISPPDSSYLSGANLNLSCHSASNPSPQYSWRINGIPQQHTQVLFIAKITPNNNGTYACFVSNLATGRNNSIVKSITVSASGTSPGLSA
quantity-measured: binding result

binder: E3 (antibody, V domains shown) VH: EVQLAESGGGLVRPGGSLRLSCAASGFTFSSYAMSTVRQAPGKGLEWVSAISGSGGSTYYADSVKGRFTISRDNSENTLYLQMNSLRAEDTAVYYCAKSNEFLFDYWGQGTLVTVSR VL: SSELTQDPAVSVALGQTVRITCQGDSLRSSYASWYQQKPGQAPVLVIYGKNNRPSGIPDRFSGSSSGNTASLTITGAQAEDEADYYCNSSYAWLPYVVFGGGTKLTVL
experimental-value: binds
--
binder: E4 (antibody, V domains shown) VH: EVQLAESGGGLVQPGGSLRLSCAASGFTFSSYGMSTVRQAPGKGLEWVSAISGSGGSTYYADSVKGRFTISRDNSKNTLYLQMNSLRAEDTAVYYCAKSNEFLFDYWGQGTLVTVSR VL: LSELTQDPAASVALGQTVRITCQGDSLRSSYASWYQQKPGQAPVLVIYGKNNRPPGIPDRFSVSSSGNTASLTITGAQAEDEADYYCNSSYAWLPYVVFGGGTKLTVL
experimental-value: binds
--
binder: E6 (antibody, V domains shown) VH: EVQLVETGGGLVQPGGSLRLSCAASGFAFSSYGMSTVRQAPGKGLEWVSAISGSGGSTYYADSVKGRFTISRDNSKNTLYLQMNSLRAEDTAVYYCAKSNEFLFDYWGQGTLVTVSR VL: SSELTQDPAVSVALGQTVRITCQGDSLRSSHASWYQQKPGRAPVLVIYGKNNRPSGIPARFSASSSGNTASLTITGAQAEDEADYYCNSSYAWLPYVVFGGGTKLTVL
experimental-value: binds
